attribute_measured: melting point

O=C1CSC(C=Cc2ccccc2)N1c1nc(-c2cc(Cl)cc3c2-c2ccc(Cl)cc2C3)cs1 (centres unmarked) [5i]; 114 to 116 °C
O=C1CSC(c2ccco2)N1c1nc(-c2cc(Cl)cc3c2-c2ccc(Cl)cc2C3)cs1 (centres unmarked) [5j]; 139 to 141 °C

List melting point for every entry below, keeping the order given.
1. O=C1CSC(c2cccs2)N1c1nc(-c2cc(Cl)cc3c2-c2ccc(Cl)cc2C3)cs1 (centres unmarked) [5k]
2. O=C1CSC(c2ccc[nH]2)N1c1nc(-c2cc(Cl)cc3c2-c2ccc(Cl)cc2C3)cs1 (centres unmarked) [5l]
3. O=C1CSC(c2ccc(Br)cc2)N1c1nc(-c2cc(Cl)cc3c2-c2ccc(Cl)cc2C3)cs1 (centres unmarked) [5d]
4. O=C1CSC(c2ccc([N+](=O)[O-])cc2)N1c1nc(-c2cc(Cl)cc3c2-c2ccc(Cl)cc2C3)cs1 (centres unmarked) [5f]
5. O=C1C(Cl)C(c2ccco2)N1c1nc(-c2cc(Cl)cc3c2-c2ccc(Cl)cc2C3)cs1 (centres unmarked) [6j]
6. COc1cc(C2C(Cl)C(=O)N2c2nc(-c3cc(Cl)cc4c3-c3ccc(Cl)cc3C4)cs2)ccc1O (centres unmarked) [6h]

Ans.
["165 to 167 °C", "124 to 126 °C", "155 to 157 °C", "90 to 92 °C", "95 to 98 °C", "95 to 97 °C"]

----------
Entries with reported MIC on E. coli
Numbers only, in µg/mL.

Illustrative cases are given below, each with its answer.
O=C1C(Cl)C(c2ccc(Cl)cc2)N1c1nc(-c2cc(Cl)cc3c2-c2ccc(Cl)cc2C3)cs1 (stereo not shown); 62.5
O=C1CSC(c2ccco2)N1c1nc(-c2cc(Cl)cc3c2-c2ccc(Cl)cc2C3)cs1 (stereo not shown); 62.5
O=C1C(Cl)C(c2cccs2)N1c1nc(-c2cc(Cl)cc3c2-c2ccc(Cl)cc2C3)cs1 (stereo not shown); 31.2

Let us move to another entry and its MIC.
// MIC lookup, compound = O=C1C(Cl)C(c2ccncc2)N1c1nc(-c2cc(Cl)cc3c2-c2ccc(Cl)cc2C3)cs1 (stereo not shown) , result: 15.6

----------
- System: MDA-MB-231 human breast cancer cells
- run_description: cell viability assay (MTT)
- Format: cell-based
- assay_setup: 31.25 µg/mL, 24 h, read-out: Validity (%) for sample concentrations (µg/mL) 31.25
Define the label as Y when viability at 31.25 µg/mL is strictly less than 80% and as N in all remaining cases.

Look over these answered cases.
O=C1C(Cl)C(c2ccncc2)N1c1nc(-c2cc(Cl)cc3c2-c2ccc(Cl)cc2C3)cs1 (centres unmarked) [6m]; Y
O=C1CSC(c2ccc(Br)cc2)N1c1nc(-c2cc(Cl)cc3c2-c2ccc(Cl)cc2C3)cs1 (centres unmarked) [5d]; N
O=C1CSC(c2cccs2)N1c1nc(-c2cc(Cl)cc3c2-c2ccc(Cl)cc2C3)cs1 (centres unmarked) [5k]; Y

Qu. Quick check: viability at 31.25 µg/mL of O=C1CSC(c2ccncc2)N1c1nc(-c2cc(Cl)cc3c2-c2ccc(Cl)cc2C3)cs1 (centres unmarked) [5m] under 80%?
Ans. N

Qu. Quick check: viability at 31.25 µg/mL of O=C1C(Cl)C(C=Cc2ccccc2)N1c1nc(-c2cc(Cl)cc3c2-c2ccc(Cl)cc2C3)cs1 (centres unmarked) [6i] under 80%?
Ans. Y

Qu. Quick check: viability at 31.25 µg/mL of O=C1C(Cl)C(c2ccco2)N1c1nc(-c2cc(Cl)cc3c2-c2ccc(Cl)cc2C3)cs1 (centres unmarked) [6j] under 80%?
Ans. Y

Qu. Quick check: viability at 31.25 µg/mL of CN(C)c1ccc(C2SCC(=O)N2c2nc(-c3cc(Cl)cc4c3-c3ccc(Cl)cc3C4)cs2)cc1 (centres unmarked) [5e] under 80%?
Ans. N

----------
- Tested on: MDA-MB-231 human breast cancer cells
- run_description: cell viability assay (MTT)
- Assay type: cell-based
- assay_setup: 31.25 µg/mL, 24 h, read-out: Validity (%) for sample concentrations (µg/mL) 31.25
Give viability at 31.25 µg/mL for every item shown.

Illustrative cases are given below, each with its answer.
COc1cc(C2SCC(=O)N2c2nc(-c3cc(Cl)cc4c3-c3ccc(Cl)cc3C4)cs2)ccc1O (centres unmarked); 79.3%
O=C1CSC(c2ccccc2)N1c1nc(-c2cc(Cl)cc3c2-c2ccc(Cl)cc2C3)cs1 (centres unmarked); 93.6%
O=C1C(Cl)C(c2ccc(Br)cc2)N1c1nc(-c2cc(Cl)cc3c2-c2ccc(Cl)cc2C3)cs1 (centres unmarked); 75.8%
O=C1CSC(c2ccco2)N1c1nc(-c2cc(Cl)cc3c2-c2ccc(Cl)cc2C3)cs1 (centres unmarked); 67%
O=C(O)c1ccc(C2C(Cl)C(=O)N2c2nc(-c3cc(Cl)cc4c3-c3ccc(Cl)cc3C4)cs2)cc1 (centres unmarked); 91.2%
O=C1C(Cl)C(c2ccccc2)N1c1nc(-c2cc(Cl)cc3c2-c2ccc(Cl)cc2C3)cs1 (centres unmarked); 90.7%
O=C1C(Cl)C(c2ccc([N+](=O)[O-])cc2)N1c1nc(-c2cc(Cl)cc3c2-c2ccc(Cl)cc2C3)cs1 (centres unmarked); 83%
O=C1CSC(c2ccc([N+](=O)[O-])cc2)N1c1nc(-c2cc(Cl)cc3c2-c2ccc(Cl)cc2C3)cs1 (centres unmarked); 89%
O=C1C(Cl)C(c2ccnc3ccccc23)N1c1nc(-c2cc(Cl)cc3c2-c2ccc(Cl)cc2C3)cs1 (centres unmarked); 86.8%
O=C1CSC(c2ccc(Cl)cc2)N1c1nc(-c2cc(Cl)cc3c2-c2ccc(Cl)cc2C3)cs1 (centres unmarked); 95.8%

List viability at 31.25 µg/mL for every entry below, keeping the order given.
1. COc1cc(C2C(Cl)C(=O)N2c2nc(-c3cc(Cl)cc4c3-c3ccc(Cl)cc3C4)cs2)ccc1O (centres unmarked)
2. O=C1C(Cl)C(c2cccs2)N1c1nc(-c2cc(Cl)cc3c2-c2ccc(Cl)cc2C3)cs1 (centres unmarked)

Ans.
["85.8%", "78.6%"]

----------
Give viability at 31.25 µg/mL for every item shown.
- Test system: A549 human lung cancer cells
- run_description: cell viability assay (MTT)
- Type: cell-based
- assay_setup: 31.25 µg/mL, 24 h, read-out: Validity (%) for sample concentrations (µg/mL) 31.25
One number for each entry, in %.

List viability at 31.25 µg/mL for every entry below, keeping the order given.
1. O=C1CSC(c2ccco2)N1c1nc(-c2cc(Cl)cc3c2-c2ccc(Cl)cc2C3)cs1 (centres unmarked)
2. O=C1C(Cl)C(C=Cc2ccccc2)N1c1nc(-c2cc(Cl)cc3c2-c2ccc(Cl)cc2C3)cs1 (centres unmarked)
3. CN(C)c1ccc(C2SCC(=O)N2c2nc(-c3cc(Cl)cc4c3-c3ccc(Cl)cc3C4)cs2)cc1 (centres unmarked)
4. O=C1CSC(C=Cc2ccccc2)N1c1nc(-c2cc(Cl)cc3c2-c2ccc(Cl)cc2C3)cs1 (centres unmarked)

Ans.
1: 83.6; 2: 89.4; 3: 85.6; 4: 91.4

----------
Give viability at 125 µg/mL for every item shown.
- Tested on: A549 human lung cancer cells
- run_description: cell viability assay (MTT)
- Assay type: cell-based
- assay_setup: 125 µg/mL, 24 h, read-out: Validity (%) for sample concentrations (µg/mL) 125
One number for each entry, in %.

O=C1C(Cl)C(c2ccncc2)N1c1nc(-c2cc(Cl)cc3c2-c2ccc(Cl)cc2C3)cs1 (centres unmarked); 62.7
O=C1CSC(c2ccccc2)N1c1nc(-c2cc(Cl)cc3c2-c2ccc(Cl)cc2C3)cs1 (centres unmarked); 79.7

List viability at 125 µg/mL for every entry below, keeping the order given.
1. O=C1C(Cl)C(c2ccc([N+](=O)[O-])cc2)N1c1nc(-c2cc(Cl)cc3c2-c2ccc(Cl)cc2C3)cs1 (centres unmarked)
2. O=C(O)c1ccc(C2C(Cl)C(=O)N2c2nc(-c3cc(Cl)cc4c3-c3ccc(Cl)cc3C4)cs2)cc1 (centres unmarked)
3. O=C1CSC(c2ccncc2)N1c1nc(-c2cc(Cl)cc3c2-c2ccc(Cl)cc2C3)cs1 (centres unmarked)
4. CN(C)c1ccc(C2C(Cl)C(=O)N2c2nc(-c3cc(Cl)cc4c3-c3ccc(Cl)cc3C4)cs2)cc1 (centres unmarked)
5. O=C1C(Cl)C(c2ccc[nH]2)N1c1nc(-c2cc(Cl)cc3c2-c2ccc(Cl)cc2C3)cs1 (centres unmarked)
6. O=C1CSC(c2ccco2)N1c1nc(-c2cc(Cl)cc3c2-c2ccc(Cl)cc2C3)cs1 (centres unmarked)

Ans.
1: 67.3; 2: 68.9; 3: 64.5; 4: 71.1; 5: 43.1; 6: 81.6

----------
- Tested on: Escherichia coli (E. coli), multidrug resistant clinical isolate
- run_description: agar well diffusion assay
- Type: cell-based
- assay_setup: 24 h, 500 µg/mL of tested compound
Give zone of inhibition at 500 µg/mL for every item shown.
Give bare numbers, in mm.

O=C1CSC(c2ccco2)N1c1nc(-c2cc(Cl)cc3c2-c2ccc(Cl)cc2C3)cs1 (centres unmarked); 10
O=C1CSC(c2ccncc2)N1c1nc(-c2cc(Cl)cc3c2-c2ccc(Cl)cc2C3)cs1 (centres unmarked); 8

List zone of inhibition at 500 µg/mL for every entry below, keeping the order given.
1. O=C1C(Cl)C(c2ccco2)N1c1nc(-c2cc(Cl)cc3c2-c2ccc(Cl)cc2C3)cs1 (centres unmarked)
2. O=C1C(Cl)C(c2ccc[nH]2)N1c1nc(-c2cc(Cl)cc3c2-c2ccc(Cl)cc2C3)cs1 (centres unmarked)
3. O=C1C(Cl)C(c2ccc(Cl)cc2)N1c1nc(-c2cc(Cl)cc3c2-c2ccc(Cl)cc2C3)cs1 (centres unmarked)

Ans.
[20, 22, 15]
